Recorded DC50 by entry
- target.desc: SMARCA2 (Homo sapiens, UniProt P51531)
- Construct: endogenous in cells; host or cells: RKO cells (CRL-2577, ATCC)
- Sequence (P51531 whole entry): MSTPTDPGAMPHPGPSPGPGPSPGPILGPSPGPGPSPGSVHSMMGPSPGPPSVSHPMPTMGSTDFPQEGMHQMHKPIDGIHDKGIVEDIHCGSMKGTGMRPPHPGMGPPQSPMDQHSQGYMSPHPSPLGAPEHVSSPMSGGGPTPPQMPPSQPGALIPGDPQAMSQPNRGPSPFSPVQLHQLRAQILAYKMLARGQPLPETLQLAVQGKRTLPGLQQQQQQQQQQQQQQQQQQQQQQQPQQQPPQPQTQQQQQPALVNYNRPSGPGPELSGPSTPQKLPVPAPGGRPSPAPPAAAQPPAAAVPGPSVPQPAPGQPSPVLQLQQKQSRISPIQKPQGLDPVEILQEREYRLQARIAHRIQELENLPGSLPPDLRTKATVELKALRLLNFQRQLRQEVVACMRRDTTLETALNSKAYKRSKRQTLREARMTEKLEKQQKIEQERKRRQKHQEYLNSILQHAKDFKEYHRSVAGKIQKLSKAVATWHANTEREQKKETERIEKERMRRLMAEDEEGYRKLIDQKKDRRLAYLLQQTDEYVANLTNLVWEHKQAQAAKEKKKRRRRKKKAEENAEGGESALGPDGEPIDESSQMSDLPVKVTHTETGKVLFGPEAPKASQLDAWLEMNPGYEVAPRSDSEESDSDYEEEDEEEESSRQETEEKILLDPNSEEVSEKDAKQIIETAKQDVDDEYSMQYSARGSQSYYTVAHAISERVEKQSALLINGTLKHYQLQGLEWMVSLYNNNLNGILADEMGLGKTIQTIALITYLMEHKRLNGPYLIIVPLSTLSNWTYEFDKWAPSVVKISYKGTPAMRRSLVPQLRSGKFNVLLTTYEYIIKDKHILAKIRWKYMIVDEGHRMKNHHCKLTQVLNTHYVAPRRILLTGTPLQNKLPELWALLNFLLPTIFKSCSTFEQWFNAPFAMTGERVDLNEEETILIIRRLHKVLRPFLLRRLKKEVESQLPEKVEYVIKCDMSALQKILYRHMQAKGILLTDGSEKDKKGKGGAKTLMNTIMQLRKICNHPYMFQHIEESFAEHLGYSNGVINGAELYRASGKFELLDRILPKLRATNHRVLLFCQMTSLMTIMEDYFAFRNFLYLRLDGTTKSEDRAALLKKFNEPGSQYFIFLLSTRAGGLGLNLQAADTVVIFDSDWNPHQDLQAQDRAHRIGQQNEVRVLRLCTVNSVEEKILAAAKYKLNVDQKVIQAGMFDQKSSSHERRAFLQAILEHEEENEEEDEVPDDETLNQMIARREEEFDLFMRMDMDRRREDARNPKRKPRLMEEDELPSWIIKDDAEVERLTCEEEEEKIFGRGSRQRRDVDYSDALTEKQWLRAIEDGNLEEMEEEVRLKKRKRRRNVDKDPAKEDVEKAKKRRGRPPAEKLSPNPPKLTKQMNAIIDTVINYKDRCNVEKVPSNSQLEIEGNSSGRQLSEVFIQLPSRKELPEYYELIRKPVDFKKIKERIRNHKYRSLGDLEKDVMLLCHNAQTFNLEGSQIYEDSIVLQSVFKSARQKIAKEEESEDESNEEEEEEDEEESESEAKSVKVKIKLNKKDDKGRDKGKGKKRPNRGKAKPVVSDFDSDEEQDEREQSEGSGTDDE
- assay.method.text: SMARCA2 degradation analysis by imaging in RKO cells (DC50 A2)
- Format: cell-based
- condition.parameters: tables 69, 70, 73, 76-78
- Method: Determination of SMARCA2 and SMARCA4 Degradation (DC50 A2 and A4 [nM]) Protein Degradation Assays for SMARCA2 and SMARCA4 For degradation analysis by imaging, 1250 RKO cells (CRL-2577, ATCC) per well were seeded into 60 μL DMEM (Sigma Aldrich) supplemented with 10% FBS (Hyclone) in 384-well flat bottom plates (CellCarrier Ultra, Perkin Elmer) and incubated at 37° C. and 5% CO2 in a humidified atmosphere overnight. […]

{"columns": ["molecule", "DC50 / nM"],
 "data": [
  ["Cc1ncsc1-c1ccc([C@H](CCC(C)(C)CCN2CCC(c3ccc4c(c3)n(C3CCCC3)c3nc(=O)c5c(Br)cccc5n43)CC2)NC(=O)[C@@H]2C[C@@H](O)CN2C(=O)[C@@H](NC(=O)C2(F)CC2)C(C)(C)C)cc1 [Compound 42g]", 3],
  ["Cc1ncsc1-c1ccc([C@H](CC[C@H](C)CCN2CCC(c3ccc4c(c3)n([C@H]3CCOC3)c3nc(=O)c5c(Br)cccc5n43)CC2)NC(=O)[C@@H]2C[C@@H](O)CN2C(=O)[C@@H](NC(=O)C2(F)CC2)C(C)(C)C)cc1 [Compound 42b]", 2],
  ["Cc1ncsc1-c1ccc([C@H](CCCCCN2CCC(c3ccc4c(c3)n([C@H]3CC[C@@H](O)C3)c3nc(=O)c5c(Br)cccc5n43)CC2)NC(=O)[C@@H]2C[C@@H](O)CN2C(=O)[C@@H](NC(=O)C2(F)CC2)C(C)(C)C)cc1 [Compound 42f]", 2],
  ["Cc1ncsc1-c1ccc([C@H](COCCN2CCC(c3cc4c(cc3F)n3c5cccc(Br)c5c(=O)nc3n4C3CCCC3)CC2)NC(=O)[C@@H]2C[C@@H](O)CN2C(=O)[C@@H](NC(=O)C2(F)CC2)C(C)(C)C)cc1 [Compound 42av]", 13]
]}

====

- target.desc: SMARCA2BD (Homo sapiens)
- Construct: the SMARCA2BD prepared at 0.5-0.7 mg/mL in coupling buffer
- Sequence (P51531 1373-1493 isoform P51531-2 limits assumed): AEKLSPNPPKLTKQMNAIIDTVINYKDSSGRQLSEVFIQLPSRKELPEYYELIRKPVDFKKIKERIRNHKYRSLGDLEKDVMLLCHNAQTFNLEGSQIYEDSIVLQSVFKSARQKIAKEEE
- assay.method.text: Binary SMARCA2 binding affinity determination (A2 binary): SMARCA2 SPR binding experiments
experimental.endpoint: Kd

{"columns": ["compound", "target.desc", "obs.value"],
 "data": [
  ["O=c1nc2n(C3CCCC3)c3cc(C4CCNCC4)ccc3n2c2cccc(Br)c12 [Compound 28a]", "SMARCA2BD (Homo sapiens)", "48 nM"]
]}

====

Catalogue of DC50 readings, one per entry.
- target.desc: SMARCA4 (Homo sapiens, UniProt P51532)
- Construct: endogenous in cells; host or cells: RKO cells (CRL-2577, ATCC)
- Sequence (P51532 whole entry): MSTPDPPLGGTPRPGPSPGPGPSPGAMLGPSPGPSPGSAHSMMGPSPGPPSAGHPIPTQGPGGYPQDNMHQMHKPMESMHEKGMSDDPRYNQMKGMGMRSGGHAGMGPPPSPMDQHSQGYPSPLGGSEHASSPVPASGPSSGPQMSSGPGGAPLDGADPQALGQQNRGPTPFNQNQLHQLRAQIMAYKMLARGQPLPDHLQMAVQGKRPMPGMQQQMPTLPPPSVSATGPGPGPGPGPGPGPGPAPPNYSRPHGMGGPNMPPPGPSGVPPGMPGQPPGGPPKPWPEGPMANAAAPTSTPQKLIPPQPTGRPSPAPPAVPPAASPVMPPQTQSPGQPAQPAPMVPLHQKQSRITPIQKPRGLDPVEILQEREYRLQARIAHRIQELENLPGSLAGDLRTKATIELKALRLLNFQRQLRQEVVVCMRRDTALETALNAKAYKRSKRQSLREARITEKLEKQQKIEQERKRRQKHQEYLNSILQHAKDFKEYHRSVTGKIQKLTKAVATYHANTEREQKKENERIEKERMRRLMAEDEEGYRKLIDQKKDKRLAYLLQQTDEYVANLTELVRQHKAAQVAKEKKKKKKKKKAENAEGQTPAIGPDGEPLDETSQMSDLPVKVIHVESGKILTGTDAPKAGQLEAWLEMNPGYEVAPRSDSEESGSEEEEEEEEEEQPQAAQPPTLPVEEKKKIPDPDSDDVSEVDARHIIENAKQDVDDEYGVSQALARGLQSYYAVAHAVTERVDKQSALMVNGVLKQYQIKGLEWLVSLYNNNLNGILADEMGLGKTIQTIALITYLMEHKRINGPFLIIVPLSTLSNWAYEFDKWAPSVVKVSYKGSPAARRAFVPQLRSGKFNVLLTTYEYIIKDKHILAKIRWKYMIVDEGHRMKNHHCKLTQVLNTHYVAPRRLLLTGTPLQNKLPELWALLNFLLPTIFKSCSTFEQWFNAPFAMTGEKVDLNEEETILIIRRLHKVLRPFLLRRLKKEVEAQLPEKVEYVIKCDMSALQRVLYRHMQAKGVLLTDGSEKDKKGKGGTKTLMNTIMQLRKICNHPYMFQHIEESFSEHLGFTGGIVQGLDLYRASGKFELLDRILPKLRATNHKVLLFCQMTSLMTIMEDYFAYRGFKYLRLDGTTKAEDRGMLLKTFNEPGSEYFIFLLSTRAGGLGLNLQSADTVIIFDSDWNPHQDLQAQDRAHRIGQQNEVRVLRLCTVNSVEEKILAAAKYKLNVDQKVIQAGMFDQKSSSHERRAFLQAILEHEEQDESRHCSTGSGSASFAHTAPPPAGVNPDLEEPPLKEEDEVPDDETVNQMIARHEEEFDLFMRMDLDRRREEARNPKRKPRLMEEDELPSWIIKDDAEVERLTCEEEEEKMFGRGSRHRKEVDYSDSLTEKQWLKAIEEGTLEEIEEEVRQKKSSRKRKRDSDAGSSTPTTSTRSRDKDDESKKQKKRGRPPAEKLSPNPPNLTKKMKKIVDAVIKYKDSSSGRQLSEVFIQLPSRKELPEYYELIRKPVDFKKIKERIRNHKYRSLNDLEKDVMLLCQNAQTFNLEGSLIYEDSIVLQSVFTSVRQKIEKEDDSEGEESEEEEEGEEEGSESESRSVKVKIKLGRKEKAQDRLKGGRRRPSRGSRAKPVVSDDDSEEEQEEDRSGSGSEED
- assay.method.text: SMARCA4 degradation analysis by imaging in RKO cells (DC50 A4)
- Assay type: cell-based
- condition.parameters: tables 69, 70, 73, 76-78

{"columns": ["compound", "qualifier.operator", "DC50 (µM)"],
 "data": [
  ["Cc1ncsc1-c1ccc([C@H](CCCCCN2CCC(c3ccc4c(c3)n(C3CCCC3)c3nc(=O)c5c(Br)cccc5n43)CC2)NC(=O)[C@@H]2C[C@@H](O)CN2C(=O)[C@@H](NC(=O)C2(F)CC2)C(C)(C)C)cc1 [Compound 42h]", "=", 0.004],
  ["Cc1ncsc1-c1ccc([C@H](CC[C@H](C)CCN2CCC(c3ccc4c(c3)n(C3CCCC3)c3nc(=O)c5c(Br)cccc5n43)CC2)NC(=O)[C@@H]2C[C@@H](O)CN2C(=O)[C@@H](NC(=O)C2(F)CC2)C(C)(C)C)cc1 [Compound 42a]", "=", 0.025],
  ["Cc1ncsc1-c1ccc([C@@H](CC[C@H](C)CCN2CCC(c3ccc4c(c3)n(C3CCCC3)c3nc(=O)c5c(Br)cccc5n43)CC2)NC(=O)[C@@H]2C[C@@H](O)CN2C(=O)[C@@H](NC(=O)C2(F)CC2)C(C)(C)C)cc1 [Compound 42at]", ">", 0.833],
  ["Cc1ncsc1-c1ccc([C@H](COCCN2CCC(c3ccc4c(c3)n(C3CCCC3)c3nc(=O)c5c(Br)cccc5n43)CC2)NC(=O)[C@@H]2C[C@@H](O)CN2C(=O)[C@@H](NC(=O)C2(C)CC2)C(C)(C)C)cc1 [Compound 42bb]", "=", 0.142],
  ["CC(=O)O[C@@H]1C[C@@H](C(=O)N[C@@H](CCCCCN2CCC(c3ccc4c(c3)n(C3CCCC3)c3nc(=O)c5c(Br)cccc5n43)CC2)c2ccc(-c3scnc3C)cc2)N(C(=O)[C@@H](NC(=O)C2(F)CC2)C(C)(C)C)C1 [Compound 42bj]", "=", 0.083],
  ["Cc1ncsc1-c1ccc([C@H](CO[C@H](C)CN2CCC(c3ccc4c(c3)n(C3CCCC3)c3nc(=O)c5c(Br)cccc5n43)CC2)NC(=O)[C@@H]2C[C@@H](O)CN2C(=O)[C@@H](NC(=O)C2(F)CC2)C(C)(C)C)cc1 [Compound 42m]", ">", 0.833],
  ["Cc1ncsc1-c1ccc([C@H](CCCN2CCC(c3cc4c(cc3OCCOCCN3CCOCC3)n3c5cccc(Br)c5c(=O)nc3n4C3CCCC3)CC2)NC(=O)[C@@H]2C[C@@H](O)CN2C(=O)[C@@H](NC(=O)C2(F)CC2)C(C)(C)C)cc1 [Compound 42z]", "=", 0.041],
  ["Cc1ncsc1-c1ccc([C@H](C[C@@H](C)CN2CCC(c3ccc4c(c3)n(C3CCCC3)c3nc(=O)c5c(Br)cccc5n43)CC2)NC(=O)[C@@H]2C[C@@H](O)CN2C(=O)[C@@H](NC(=O)C2(F)CC2)C(C)(C)C)cc1 [Compound 42u]", "=", 0.0007]
]}

====

- target.desc: SMARCA2 (Homo sapiens, UniProt P51531)
- Construct: endogenous in cells; host or cells: RKO cells (CRL-2577, ATCC)
- assay.method.text: SMARCA2 degradation analysis by imaging in RKO cells (DC50 A2)
- Type: cell-based
- condition.parameters: tables 69, 70, 73, 76-78
experimental.endpoint: DC50 (nM)

{"columns": ["molecule", "obs.value"],
 "data": [
  ["Cc1ncsc1-c1ccc([C@H](COCCN2CCC(c3cc4c(cc3OC[C@@H]3CCCO3)n3c5cccc(Br)c5c(=O)nc3n4C3CCCC3)CC2)NC(=O)[C@@H]2C[C@@H](O)CN2C(=O)[C@@H](NC(=O)C2(F)CC2)C(C)(C)C)cc1 [Compound 42t]", 3],
  ["Cc1ncsc1-c1ccc([C@H](CCCCCN2C[C@@H]3C[C@H]2CN3c2ccc3c(c2)n(C2CCCC2)c2nc(=O)c4c(Br)cccc4n32)NC(=O)[C@@H]2C[C@@H](O)CN2C(=O)[C@@H](NC(=O)C2(F)CC2)C(C)(C)C)cc1 [Compound 42au]", 7]
]}

====

- target.desc: SMARCA4 (Homo sapiens)
- Construct: endogenous in cells; host or cells: RKO cells (CRL-2577, ATCC)
- assay.method.text: SMARCA4 degradation analysis by imaging in RKO cells (DC50 A4)
- Format: cell-based
- condition.parameters: tables 69, 70, 73, 76-78
Reported DC50 values for a set of compounds
experimental.endpoint: DC50

{"columns": ["compound", "target.desc", "obs.value"],
 "data": [
  ["Cc1ncsc1-c1ccc([C@H](COC(C)(C)CN2CCCN(c3ccc4c(c3)n(C3CCCC3)c3nc(=O)c5c(Br)cccc5n43)CC2)NC(=O)[C@@H]2C[C@@H](O)CN2C(=O)[C@@H](NC(=O)C2(F)CC2)C(C)(C)C)cc1 [Compound 42i]", "SMARCA4 (Homo sapiens)", "24 nM"],
  ["Cc1ncsc1-c1ccc([C@H](CCC(C)(C)CCN2CCC(c3ccc4c(c3)n(C3CCCC3)c3nc(=O)c5c(Br)cccc5n43)CC2)NC(=O)[C@@H]2C[C@@H](O)CN2C(=O)[C@@H](NC(=O)C2(F)CC2)C(C)(C)C)cc1 [Compound 42g]", "SMARCA4 (Homo sapiens)", "40 nM"],
  ["Cc1ncsc1-c1ccc([C@H](COCCN2CCC(c3ccc4c(c3)n(C3CCCC3)c3nc(=O)c5c(Br)cccc5n43)CC2)NC(=O)[C@@H]2C[C@@H](O)CN2C(=O)[C@@H](NC(=O)C2(C#N)CC2)C(C)(C)C)cc1 [Compound 42be]", "SMARCA4 (Homo sapiens)", "67 nM"],
  ["Cc1ncsc1-c1ccc([C@H](CCCN2CCC(c3cc4c(cc3OCCCN(C)C)n3c5cccc(Br)c5c(=O)nc3n4C3CCCC3)CC2)NC(=O)[C@@H]2C[C@@H](O)CN2C(=O)[C@@H](NC(=O)C2(F)CC2)C(C)(C)C)cc1 [Compound 42aa]", "SMARCA4 (Homo sapiens)", "20 nM"]
]}
